Molecular target: alpha-synuclein fibril, F-type conformer (fibrils) (UniProt P37840 P37840:1-140)
Assay: FP filter; nitrocellulose filter; retained much more than random sequence
outcome_measure: binding result

binder | reading
4F03-G (ssRNA, 2'-F on all pyrimidines) RNA: GGGAGAGUAUCCGUUGGAGGCAUGCAACAGACGCACCGUACACACAUCUUGGCCGUUGGCUGCCCGACCAGCCAGAUCGGAAGAGCGUCGUGUAGGGCAUUGCCCCAGCGUGACUGCCUA | binds
4F01-G (ssRNA, 2'-F on all pyrimidines) RNA: GGGAGAGUAUCCGUUGGAGGCAUAGCAGCACACGACCAGUGUGCCCCACACCCAGUGGUGGUCUGUGGUGUGCAGAUCGGAAGAGCGUCGUGUAGGGCAUUGCCCCAGCGUGACUGCCUA | binds
